- Test system: DIV17
- Experiment notes: qHTS profiling for inhibitors of Plasmodium falciparum proliferation (AID 504749); also: nearly all actives have a fitted effect of over 60% in size
- Test settings: P. falciparum in erythrocytes, SYBR Green DNA, 72 h; series mostly up to 28.7 µM
Results filed as inconclusive are left out. Active and inactive are the calls of the source. Calls follow the shape of the dose curve; as a rule, active = well fitted inhibition curve with a large enough effect; inconclusive = small, poorly fitted or top-dose-only effect; inactive = flat fitted curve, though single readings scatter.
Outcome codes: active, inactive

INSERT INTO results (compound, discrete_label) VALUES
  ('C[C@@]12CC[C@H]3[C@@H](CC[C@@H]4C[C@H]5S[C@H]5C[C@]43C)[C@H]1CC[C@H]2O', 'inactive'),
  ('N[C@H]1C[C@H]1c1ccccc1', 'inactive'),
  ('COc1cc(N)c(Cl)cc1C(=O)N[C@@H]1CN2CCC1CC2', 'inactive'),
  ('CC(C)c1c(CN(C)[C@@H](C)Cc2ccccc2)n(C)n(-c2ccccc2)c1=O', 'inactive'),
  ('C[N+]1([O-])[C@@H]2CC[C@H]1CC(OC(=O)[C@@H](CO)c1ccccc1)C2 (some centres undefined)', 'inactive'),
  ('C[C@@H]1O[C@H](O[C@@H]2C=C3CC[C@H]4[C@@H](CC[C@]5(C)[C@@H](c6ccc(=O)oc6)CC[C@]45O)[C@@]3(C)CC2)[C@@H](O)[C@H](O)[C@@H]1O', 'inactive'),
  ('Clc1ccc([C@@H](OCCN2CCCCC2)c2ccccc2)cc1', 'active'),
  ('Oc1ccc2c3c1O[C@H]1[C@@H](O)CC[C@@]4(O)C(C2)N(CC2CCC2)CCC314 (some centres undefined)', 'inactive'),
  ('CN(C)[C@@H]1C(=O)C(C(N)=O)=C(O)[C@]2(O)C(=O)C3=C(O)c4c(O)ccc(Cl)c4[C@](C)(O)[C@H]3C[C@@H]12', 'inactive');

---

The following compounds are shown together with reported max response values.
- Experiment notes: qHTS assay for small molecule antagonists of peroxisome proliferator-activated receptor delta signaling (AID 588535);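 also: cells co-treated with a PPAR-delta agonist as stimulator during compound exposure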
- Test settings: HEK293T PPARd-UAS-bla, beta-lactamase FRET ratio, 18 h; 460 nm channel
Inconclusive results are not listed.
Measured endpoint: max response (%)

INSERT INTO measurements (compound, readout_units, numeric_result) VALUES
  ('CN=C=S', '%', 11.4),
  ('Clc1ccc2ccccc2c1', '%', -27.9),
  ('Cc1ccc2ccccc2c1', '%', 14.3),
  ('CC(Cl)Cl', '%', 2.53),
  ('Cc1ccccc1N', '%', 7.62),
  ('C=C(C)C(=O)OCC1CO1 (stereo not given)', '%', -13.4),
  ('O=C(O)COc1cc(Cl)c(Cl)cc1Cl', '%', 15.2),
  ('C=CCOC(=O)c1ccccc1N', '%', 8.66),
  ('CCS(=O)CCSP(=O)(OC)OC (stereo not given)', '%', 34.5),
  ('ClCBr', '%', 36.6),
  ('CC(C)(OO)c1ccccc1', '%', -33),
  ('CC(C)OC(=O)Nc1cccc(Cl)c1', '%', 2.77),
  ('CNC(=O)Oc1cccc2c1OC(C)(C)O2', '%', 28.5),
  ('CC(C)Nc1nc(Cl)nc(NC(C)C)n1', '%', 16.2),
  ('CC(C)(c1ccccc1)c1ccc(O)cc1', '%', 13),
  ('S=C=Nc1cccc2ccccc12', '%', -3.26),
  ('COc1nc(NC(C)C)nc(NC(C)C)n1', '%', 7.33),
  ('OCC(Br)CBr (stereo not given)', '%', 7.4),
  ('C1CCC2CCCCC2C1 (stereo not given)', '%', -10.8),
  ('COC1=CC(=O)O[C@@H](/C=C/c2ccc3c(c2)OCO3)C1', '%', 27.2),
  ('CCCOC(=O)c1ccccc1C(=O)OCCC', '%', 2.17),
  ('Cc1ccc([N+](=O)[O-])cc1C', '%', -1.38),
  ('COP(=S)(OC)Oc1ccc([N+](=O)[O-])cc1', '%', -15.9),
  ('N#Cc1c(Cl)cccc1Cl', '%', 41.3),
  ('C=CCc1ccc(OC)cc1', '%', -9.08),
  ('C=C(Cl)Cl', '%', -8.55),
  ('CC(C)N1C(=O)c2ccccc2NS1(=O)=O', '%', 55.3),
  ('O=C1C(Cl)=C(Cl)C(=O)C(Cl)=C1Cl', '%', -78.9),
  ('c1nc[nH]n1', '%', -9.48),
  ('CNC(=O)Oc1ccccc1OC(C)C', '%', 17.8),
  ('O=C(Cl)C(Cl)(Cl)Cl', '%', 6.34),
  ('CCCCOCCOP(=O)(OCCOCCCC)OCCOCCCC', '%', 25),
  ('C=CC(=O)OCC', '%', 26.1),
  ('ClC1=C(Cl)C2(Cl)C3C(Cl)C=CC3C1(Cl)C2(Cl)Cl (stereo not given)', '%', -19.5),
  ('COc1ccc(N)cc1', '%', 35);
